B1: glmS ribozyme (parent)
chain: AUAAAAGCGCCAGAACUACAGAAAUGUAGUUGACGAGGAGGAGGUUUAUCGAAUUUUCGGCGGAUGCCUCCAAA

variants of: B1; assay: self-cleavage kobs at 10000 uM GlcN6P; higher = faster cleavage; RNA array; details: with glucosamine-6-phosphate
This sample holds only a part of the variants without activity.
The following ranges of self-cleavage kobs at 10000 uM GlcN6P define the classes used here: bottom bin = under 0.0002 s⁻¹, middle bin = from 0.0002 s⁻¹ up to 0.003 s⁻¹, top bin = 0.003 s⁻¹ and over

Would you please look over these solved cases?
variant_notation="U30A G35C" assigned_class="bottom bin"
variant_notation="U30A C70U" assigned_class="top bin"
variant_notation="G40A U47G" assigned_class="middle bin"
variant_notation="A52C U55A" assigned_class="bottom bin"
variant_notation="C8G A12C A33C" assigned_class="bottom bin"

Hi, small favor: classify U31G A53G U69C by its self-cleavage kobs at 10000 uM GlcN6P when you get a moment. top bin

# repeat for A14U A42U U57C bottom bin

# repeat for C16G A36C bottom bin

# repeat for C8G A36G bottom bin

# repeat for U30G U47A top bin

// data source = the supplement of paper PMC7125110
